biological target: Nuclear receptor ROR-gamma (Homo sapiens, UniProt P51449); experiment: Inverse agonist activity at GAL4 DNA-binding domain fused RORgamma (unknown origin) transfected in HEK293T cells co-transfected with GAL4-promoter driven luciferase reporter gene assessed as inhibition of RORgammat transcription incubated for 18 to 20 hrs by plate reader analysis; format: cell-based
Sequence (P51449 whole entry, the tested form may be a part): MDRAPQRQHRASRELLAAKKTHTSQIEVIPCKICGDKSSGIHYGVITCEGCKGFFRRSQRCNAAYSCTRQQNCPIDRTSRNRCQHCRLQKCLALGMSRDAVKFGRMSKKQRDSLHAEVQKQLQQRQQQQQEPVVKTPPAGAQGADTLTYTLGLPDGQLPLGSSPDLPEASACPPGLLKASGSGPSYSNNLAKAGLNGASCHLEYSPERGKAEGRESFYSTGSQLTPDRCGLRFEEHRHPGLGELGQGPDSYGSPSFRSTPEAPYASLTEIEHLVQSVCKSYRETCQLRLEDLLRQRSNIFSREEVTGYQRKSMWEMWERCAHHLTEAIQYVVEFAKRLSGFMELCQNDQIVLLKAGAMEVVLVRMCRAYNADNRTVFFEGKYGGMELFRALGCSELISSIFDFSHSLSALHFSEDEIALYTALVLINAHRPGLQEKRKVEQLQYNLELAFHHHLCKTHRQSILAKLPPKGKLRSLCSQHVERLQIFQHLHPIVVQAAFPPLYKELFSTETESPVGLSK
IC50 values for the compounds below.
Just so you know, I need the unit written after the number.

compound	IC50
CCc1ccc(N(CC(C)C)S(=O)(=O)c2ccc(OCC3CCOCC3)c(CO)c2)cc1	13.6 nM
CC[C@@H]1CCc2cc(C(C)C)ccc2N1S(=O)(=O)c1ccc(OCC2CCOCC2)c(CO)c1	14.8 nM
CC[C@H]1CCc2cc(C(C)C)ccc2N1S(=O)(=O)c1ccc(OCC2CCOCC2)c(CO)c1	22.1 nM

Next up:
QUERY: API: value(readout=IC50, system=Nuclear receptor ROR-gamma (Homo sapiens, UniProt P51449)) for record CCC1CCc2cc(C(C)C)ccc2N1S(=O)(=O)c1ccc(OCC2CCOCC2)c(CO)c1 (racemic)
RESULT: 21 nM

----------
experiment: Clearance in male DBA/1 mouse at 5 mg/kg, iv measured after 24 hrs by HPLC analysis; format: ADME, organism-based; conditions: in vivo
clearance values for the molecules below.
Just so you know, I need the unit written after the number.

molecule	value_reported
CCc1ccc(N(CC(C)C)S(=O)(=O)c2ccc(OCC3CCOCC3)c(CO)c2)cc1	64.2 mL/min/kg

Next up:
QUERY: # clearance lookup, item CCC1CCc2cc(C(C)C)ccc2N1S(=O)(=O)c1ccc(OCC2CCOCC2)c(CO)c1 (racemic)
RESULT: 81.9 mL/min/kg

----------
test: AUC (0 to infinity) in male DBA/1 mouse at 5 mg/kg, iv measured after 24 hrs by HPLC analysis; type: ADME, organism-based; settings: in vivo
AUC(0-inf) values for the compounds below.
I only need the number, in ng·h/mL, no unit after it.

compound	value_reported
CCc1ccc(N(CC(C)C)S(=O)(=O)c2ccc(OCC3CCOCC3)c(CO)c2)cc1	1310

Next up:
QUERY: # AUC(0-inf) lookup, item CCC1CCc2cc(C(C)C)ccc2N1S(=O)(=O)c1ccc(OCC2CCOCC2)c(CO)c1 (racemic)
RESULT: 1020

----------
pIC50 values for the molecules below.
biological target: Nuclear receptor ROR-gamma (Homo sapiens, UniProt P51449); assay: Inverse agonist activity at N-terminal 6-His-tagged/APC-labeled human RORgammat LBD extracted from Escherichia coli assessed as inhibition of europium-labeled SRC-1 recruitment incubated for 3 hrs by TR-FRET analysis
Note: pIC50 values are expressed as the negative base-10 logarithm of concentration in M.

Worked cases, answers included:
molecule	pIC50
CCc1ccc2c(c1)CCC(CC)N2S(=O)(=O)c1ccc(OC2CCN(S(C)(=O)=O)CC2)c(CO)c1 (racemic)	6.77
CCC1CCc2cc(CC(F)(F)F)ccc2N1S(=O)(=O)c1ccc(OCC2CCOCC2)c(CO)c1 (racemic)	7.64
CCc1ccc2c(c1)CCC(CC)N2S(=O)(=O)c1ccc(OCC2CCOCC2)c(S(C)(=O)=O)c1 (racemic)	5.73
CCc1ccc2c(c1)CCC(CC)N2S(=O)(=O)c1ccc(C(CO)N2CCOCC2)c(CO)c1 (racemic)	5.51
CCc1ccc2c(c1)CC(C)CN2S(=O)(=O)c1ccc(OCC2CCOCC2)c(CO)c1 (racemic)	7.44

QUERY: # pIC50 lookup, item CCC1CCc2cc(C(C)C)ccc2N1S(=O)(=O)c1ccc(OCC2CCOCC2)c(CO)c1 (racemic)
RESULT: 8.46

QUERY: Can you check CCC1CCc2cc(C(C)(C)C)ccc2N1S(=O)(=O)c1ccc(OCC2CCOCC2)c(CO)c1 (racemic) next?
RESULT: 7.15

QUERY: Can you check CCc1ccc2c(c1)CCC(CC)N2S(=O)(=O)c1ccc(OCC2CCOCC2)c(S(N)(=O)=O)c1 (racemic) next?
RESULT: 6.24

----------
assay: Oral bioavailability in male DBA/1 mouse at 20 mg/kg measured after 24 hrs by HPLC analysis; format: ADME, organism-based; details: in vivo
measured_endpoint: bioavailability (%)
I only need the number, in %, no unit after it.

compound	unit_symbol	bioavailability
CCC1CCc2cc(C(C)C)ccc2N1S(=O)(=O)c1ccc(OCC2CCOCC2)c(CO)c1 (racemic)	%	48.1

Next up:
QUERY: # bioavailability lookup, item CCc1ccc(N(CC(C)C)S(=O)(=O)c2ccc(OCC3CCOCC3)c(CO)c2)cc1 [GSK2981278]
RESULT: 6.2

----------
test: AUC (0 to infinity) in male DBA/1 mouse at 20 mg/kg, po measured after 24 hrs by HPLC analysis; assay type: ADME, organism-based; details: in vivo
measured_endpoint: AUC(0-inf) (ng·h/mL)
I only need the number, in ng·h/mL, no unit after it.

QUERY: # AUC(0-inf) lookup, item CCc1ccc(N(CC(C)C)S(=O)(=O)c2ccc(OCC3CCOCC3)c(CO)c2)cc1 [GSK2981278]
RESULT: 326

QUERY: Can you check CCC1CCc2cc(C(C)C)ccc2N1S(=O)(=O)c1ccc(OCC2CCOCC2)c(CO)c1 (racemic) next?
RESULT: 1960

----------
Cmax values for the molecules below.
assay: Cmax in male DBA/1 mouse at 20 mg/kg, po measured after 24 hrs by HPLC analysis; format: ADME, organism-based; conditions: in vivo

molecule	Cmax
CCC1CCc2cc(C(C)C)ccc2N1S(=O)(=O)c1ccc(OCC2CCOCC2)c(CO)c1 (racemic)	485 ng/mL

QUERY: # Cmax lookup, item CCc1ccc(N(CC(C)C)S(=O)(=O)c2ccc(OCC3CCOCC3)c(CO)c2)cc1 [GSK2981278]
RESULT: 99.3 ng/mL

----------
assay: Tmax in male DBA/1 mouse at 5 mg/kg, iv measured after 24 hrs by HPLC analysis; assay type: ADME, organism-based; conditions: in vivo
measured_endpoint: Tmax (min)
I only need the number, in min, no unit after it.

QUERY: # Tmax lookup, item CCc1ccc(N(CC(C)C)S(=O)(=O)c2ccc(OCC3CCOCC3)c(CO)c2)cc1
RESULT: 4.98

QUERY: Can you check CCC1CCc2cc(C(C)C)ccc2N1S(=O)(=O)c1ccc(OCC2CCOCC2)c(CO)c1 (racemic) next?
RESULT: 4.98

----------
assay: Cmax in male DBA/1 mouse at 5 mg/kg, iv measured after 24 hrs by HPLC analysis; format: ADME, organism-based; conditions: in vivo
measured_endpoint: Cmax (ng/mL)
I only need the number, in ng/mL, no unit after it.

molecule	Cmax / ng/mL
CCc1ccc(N(CC(C)C)S(=O)(=O)c2ccc(OCC3CCOCC3)c(CO)c2)cc1	1280

Next up:
QUERY: # Cmax lookup, item CCC1CCc2cc(C(C)C)ccc2N1S(=O)(=O)c1ccc(OCC2CCOCC2)c(CO)c1 (racemic)
RESULT: 1210

----------
experiment: Tmax in male DBA/1 mouse at 20 mg/kg, po measured after 24 hrs by HPLC analysis; type: ADME, organism-based; conditions: in vivo
measured_endpoint: Tmax (min)
I only need the number, in min, no unit after it.

compound	measured_endpoint	value_reported
CCc1ccc(N(CC(C)C)S(=O)(=O)c2ccc(OCC3CCOCC3)c(CO)c2)cc1 [GSK2981278]	Tmax	25

Next up:
QUERY: # Tmax lookup, item CCC1CCc2cc(C(C)C)ccc2N1S(=O)(=O)c1ccc(OCC2CCOCC2)c(CO)c1 (racemic)
RESULT: 30

----------
molecular target: Nuclear receptor ROR-gamma (Homo sapiens, UniProt P51449); assay: Inverse agonist activity at N-terminal 6-His-tagged/APC-labeled human RORgammat LBD extracted from Escherichia coli assessed as inhibition of europium-labeled SRC-1 recruitment incubated for 3 hrs by TR-FRET analysis
log10 IC50 values for the compounds below.
Hi team, quick reminder: these entries are log10 of IC50 (nM).

compound	value_reported
CCc1ccc(N(CC(C)C)S(=O)(=O)c2ccc(OCC3CCOCC3)c(CO)c2)cc1	0.40
CCc1ccc2c(c1)CCC(CC)N2S(=O)(=O)c1ccc(OCC2CCOCC2)c(CO)n1 (racemic)	2.33
CCc1ccc2c(c1)CCC(CC)N2S(=O)(=O)c1ccc(OCC2CCOCC2)c(CO)c1 (racemic)	1.04
C=Cc1ccc2c(c1)CCC(CC)N2S(=O)(=O)c1ccc(OCC2CCOCC2)c(CO)c1 (racemic)	1.56
CCc1ccc2c(c1)CCC(CC)N2S(=O)(=O)c1ccc(OCCC(C)(C)O)c(CO)c1 (racemic)	2.66

QUERY: # log10 IC50 lookup, item CCc1ccc2c(c1)CCC(C)N2S(=O)(=O)c1ccc(OCC2CCOCC2)c(CO)c1 (racemic)
RESULT: 1.38

QUERY: Can you check CC1CCc2cc(C3CC3)ccc2N1S(=O)(=O)c1ccc(OCC2CCOCC2)c(CO)c1 (racemic) next?
RESULT: 1.32

QUERY: Can you check C=C(C)c1ccc2c(c1)CCC(CC)N2S(=O)(=O)c1ccc(OCC2CCOCC2)c(CO)c1 (racemic) next?
RESULT: 1.08

QUERY: Can you check CCc1ccc2c(c1)C(C)CCN2S(=O)(=O)c1ccc(OCC2CCOCC2)c(CO)c1 (racemic) next?
RESULT: 2.82

QUERY: Can you check CCc1ccc2c(c1)CCC(CC)N2S(=O)(=O)c1ccc(OCC2CCS(=O)(=O)CC2)c(CO)c1 (racemic) next?
RESULT: 2.16

QUERY: Can you check CCc1ccc2c(c1)CC(CC)CN2S(=O)(=O)c1ccc(OCC2CCOCC2)c(CO)c1 (racemic) next?
RESULT: 1.51

QUERY: Can you check CCc1ccc2c(c1)CCC(C(F)(F)F)N2S(=O)(=O)c1ccc(OCC2CCOCC2)c(CO)c1 (racemic) next?
RESULT: 1.36

QUERY: Can you check CC1CCc2cc(C#N)ccc2N1S(=O)(=O)c1ccc(OCC2CCOCC2)c(CO)c1 (racemic) next?
RESULT: 2.84

QUERY: Can you check CCC1CCc2cc(C(F)(F)F)ccc2N1S(=O)(=O)c1ccc(OCC2CCOCC2)c(CO)c1 (racemic) next?
RESULT: 1.32

QUERY: Can you check CC[C@H]1CCc2cc(C(C)C)ccc2N1S(=O)(=O)c1ccc(OCC2CCOCC2)c(CO)c1 next?
RESULT: 0.92

QUERY: Can you check CCC1CCc2cc(C(C)(C)O)ccc2N1S(=O)(=O)c1ccc(OCC2CCOCC2)c(CO)c1 (racemic) next?
RESULT: 3.15

QUERY: Can you check CCc1ccc2c(c1F)CCC(CC)N2S(=O)(=O)c1ccc(OCC2CCOCC2)c(CO)c1 (racemic) next?
RESULT: 1.15
